tested on: OVCAR-5 ovarian; assay: NCI tumour cell line growth inhibition, 48 h
measured metric: TGI

# batch size: 4; output TGI per entry
1. Nc1ccc2[nH]c(-c3cccc(C(F)(F)F)c3)cc(=O)c2c1
2. CC1CN=C(NS(=O)(=O)c2cc(C(=O)Nc3ccc(Cl)cc3)c(Cl)cc2S)NN1 (stereo unspecified)
3. O=S(=O)([O-])c1ccc(N=Cc2ccccc2[O-])cc1.O=S(=O)([O-])c1ccc(N=Cc2ccccc2[O-])cc1.[Co+2]
4. O=C1C(=C(C(F)(F)Cl)C(F)(F)Cl)C2CCC1C2 (stereo unspecified)

A:
> 100 µM
> 100 µM
> 100 µM
> 10 µM

Go through the list and state TGI for each entry.
1. CCOC(=O)C1SC(=Nc2ccc(OC)c(OC)c2)N=C1C (stereo unspecified)
2. COc1cc2c(c(OC)c1OC)-c1ccc(O)cc1[C@@H](NC(C)=O)CC2
3. COc1c(C)cc2c(C(C)C)c(O)c(O)c(C=O)c2c1O

A:
1: > 100 µM; 2: > 100 µM; 3: 86 µM

Could I get TGI for every one of these entries?
1. S=C1NC2=C(COc3ccccc32)C(c2ccc(Cl)cc2)N1 (stereo unspecified)
2. CC1(C)[C@@H]2CC[C@]1(C)[C@H](OC(=O)/C=C/c1ccccc1)C2
3. Cc1cccc(-n2c(N)c(-c3nc4ccccc4[nH]3)sc2=S)c1
4. Cc1ccc2oc(=O)cc(/C(=C3/C=CC=N3)c3ccc[nH]3)c2c1

A:
30.7 µM
39.1 µM
> 100 µM
12.7 µM
